# EXPERIMENTAL_SYSTEM: T1, hRpn10^305–377 (RAZUL, Rpn10 AZUL binding domain) (human, UniProt P55036 305-377)
# T1 sequence (looked up): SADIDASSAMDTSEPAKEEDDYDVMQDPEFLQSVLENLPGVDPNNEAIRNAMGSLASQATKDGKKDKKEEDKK
# ASSAY_DETAILS: ITC

BINDER	Kd [nM]
E6AP AZUL domain, E6AP[24–87] (domain or fragment, human, UniProt Q05086 24-87, looked up) MKRAAAKHLIERYYHQLTEGCGNEACTNEFCASCPTFLRMDNNAAAIKALELYKINAKLCDPHP	11.6

From: paper doi:10.1101/797027
